# System: HOP-92 NSCLC
# assay_name: NCI tumour cell line growth inhibition, 48 h
observation_type: TGI

Some solved cases for reference:
Cc1nnc(NS(=O)(=O)c2ccc(N=Nc3c(O)c(C(=O)O)cc4ccccc34)cc2)s1: > 100 µM
CC(=O)OC1=C(c2ccccc2)S(=O)(=O)c2ccccc21: > 100 µM

Could you now consider this next compound?
QUERY: Quick one: TGI of "COc1cc(/C=C(\C#N)C(=O)c2ccccc2)cc(OC)c1OC" ?
RESULT: > 100 µM

====

# Tested on: NCI-H226 lung
# assay_name: NCI tumour cell line growth inhibition, 48 h
observation_type: TGI

CCOC(=O)c1cn2c(n1)sc1cc([N+](=O)[O-])ccc12: > 100 µM
NS(=O)(=O)c1ccc(NNc2c3ccccc3nc3c(C(=O)Nc4ccc(S(N)(=O)=O)cc4)cccc23)cc1: > 100 µM
CC1CC(=O)C(CC(=O)O)[C@H]1C(C(=O)C(=O)Nc1cc(Cl)ccc1Cl)[N+](=O)[O-] (some centres not stated): > 100 µM
COc1cc(CC2c3cc(OC)c(OC)cc3CCN2C)c(C(=O)O)cc1OC (configuration not stated): > 100 µM
COc1nc2c(c(=O)[nH]1)N=C(c1ccc([N+](=O)[O-])cc1)CC(c1ccccc1)N2 (configuration not stated): > 100 µM
Cc1cc(C)c(CNC(=O)c2cc(Cl)c3c(c2C)O[C@@](C)(C2CCC(N(C)C)CC2)O3)c(=O)[nH]1 (some centres not stated): > 100 µM

Next molecule, please.
QUERY: Query (molecule): "COc1ccc2c(c1)c(-c1nc(-c3cn(C)c4ncccc34)cs1)cn2CCCCN1CCCCC1" ; field requested: TGI
RESULT: 3.11 µM

====

The following compounds are listed with their measured TGI values.
# Tested on: KM12 colon
# assay_name: NCI tumour cell line growth inhibition, 48 h

Field: example entries. Status: answers known.
COC(=O)[C@@H](C)C[C@H](Cc1ccccc1)NC(=O)c1nc([C@@H](C[C@H](C(C)C)N(C)C(=O)[C@@H](NC(=O)[C@H]2CC(=O)CCN2C)C(C)C)OC(C)=O)sc1C(C)C: > 6.76 µM
CC1(C)N=C(N)N=C(N)N1c1cccc(CC(=O)Nc2ccccc2)c1: > 100 µM
Nc1ccc(Oc2ccc(C3(c4ccc(Oc5ccc(N)c(O)c5)cc4)C4CC5CC(C4)CC3C5)cc2)cc1O: 4.59 µM

QUERY: # query: TGI | item C/C=C/C(C/C=C(\C)CO[Si](C)(C)C(C)(C)C)O[Si](C)(C)C(C)(C)C (centres undefined) | system: KM12 colon
RESULT: > 100 µM

====

Reported TGI by item:
# System: SK-MEL-5 melanoma
# assay_name: NCI tumour cell line growth inhibition, 48 h

COc1ccc(Cc2c3cc(OC)c(OC)cc3cc[n+]2C)cc1: > 62.2 µM
N#Cc1nc(CCC(C(=O)O)N2C(=O)c3ccccc3C2=O)oc1N (stereo unspecified): > 100 µM
NC(Cc1c2ccccc2cc2ccccc12)C(=O)O (stereo unspecified): > 100 µM
CC(=O)O[C@H]1CC[C@@]2(C)C(=CC[C@@H]3[C@@H]2CC[C@]2(C)C(=O)/C(=C\c4ccccc4)C[C@@H]32)C1: > 100 µM
Cc1nc2ccccc2c(=O)n1/N=C(\N=Nc1ccc(Cl)cc1)c1ccc(N(C)C)cc1: > 100 µM
CC(C(=O)NCNC(=O)c1ccccc1)C(=O)NCc1ccccc1 (stereo unspecified): > 100 µM
COc1cc(N(CCC#N)CCC#N)ccc1/C(N=Nc1cccc([N+](=O)[O-])c1)=N\NC(=O)c1ccc(C)cc1: > 100 µM
O=C(Nc1cc(Cl)ccc1Cl)c1cc2ccccc2oc1=O: > 100 µM

QUERY: Give its TGI value. Item: "CC(=O)OCCn1c(Cc2ccc(Cl)cc2)nn(C(C)=O)c1=O"
RESULT: > 100 µM

QUERY: And for "COc1cc(CCNC2=CC(=O)c3ncccc3C2=O)ccc1O" ?
RESULT: 1.84 µM

QUERY: One more molecule: "CC(=O)[O-].O=C([CH-]C(=O)c1ccccc1)c1ccccc1.O=C([CH-]C(=O)c1ccccc1)c1ccccc1.[Dy+3]"
RESULT: 20.9 µM

QUERY: Now try "CC1(C)CC[C@]2(C(=O)O)CC[C@]3(C)C(=CC[C@@H]4[C@@]5(C)C/C(=C/c6cccnc6)[C@H](O)C(C)(C)[C@@H]5CC[C@]43C)[C@@H]2C1" .
RESULT: 23.2 µM

QUERY: Would you kindly repeat that for "O=C(O)c1ccc2nc(-c3ccccn3)c(-c3ccccn3)nc2c1" ?
RESULT: > 100 µM

QUERY: // repeat for "CC(C)=CCN1c2ccccc2[C@@]2(CC=C(C)C)CCN(C)[C@@H]12" and report
RESULT: 33.2 µM

QUERY: Please do the same for CCCN1CCCC(c2ccc(Nc3nc(Nc4cc(F)ccc4C(N)=O)c4cc[nH]c4n3)c(OC)c2)C1 (stereo unspecified) as well.
RESULT: 6.24 µM

QUERY: Record: Nc1nc(N)c2nc(CNc3ccc(C(=O)NC(CCC(=O)O)C(=O)O)cc3)cnc2n1 (stereo unspecified)
RESULT: > 100 µM

meta.source: PubChem BioAssay (NCI)
